Biological target: Serine/threonine-protein kinase Chk1 (Homo sapiens, UniProt O14757)
Sequence (O14757 whole entry): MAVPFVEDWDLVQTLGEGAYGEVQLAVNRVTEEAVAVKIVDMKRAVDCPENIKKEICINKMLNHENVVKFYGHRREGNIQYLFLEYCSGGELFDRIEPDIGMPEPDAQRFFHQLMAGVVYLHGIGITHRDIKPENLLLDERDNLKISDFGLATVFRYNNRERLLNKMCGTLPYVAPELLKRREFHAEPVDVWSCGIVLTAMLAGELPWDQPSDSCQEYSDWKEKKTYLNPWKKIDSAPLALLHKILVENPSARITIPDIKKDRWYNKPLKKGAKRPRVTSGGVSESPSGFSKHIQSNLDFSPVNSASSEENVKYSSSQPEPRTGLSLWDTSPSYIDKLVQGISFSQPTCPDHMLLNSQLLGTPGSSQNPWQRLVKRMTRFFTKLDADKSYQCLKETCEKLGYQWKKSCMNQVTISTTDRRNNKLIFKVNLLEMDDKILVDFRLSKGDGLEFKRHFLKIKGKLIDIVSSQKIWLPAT
testReadout: IC50 (nM)
Numeric answer only, unit nM assumed.

Send back Serine/threonine-protein kinase Chk1 (Homo sapiens, UniProt O14757) IC50 of O=C1NC(=O)c2c1c1[nH]cnc1c1[nH]c3ccccc3c21 [GRANULATIMIDE] only.
250

Each recorded value in this set is attributed to ChEMBL document CHEMBL3352797.
